Cited source: patent US20040018971A1

Measured pIC50, listed per entry for reference.
- experimental.system: HLA-B*0702 (human)
- assay.explanation: competition with 125I probe peptide, purified HLA
Note: pIC50 values are expressed as the negative base-10 logarithm of concentration in M.

Study these solved cases before continuing.
{"binder": "SPGGLRELQL [Her2/neu.133 (10-mer)]", "pIC50": 7.02}
{"binder": "FPNPEGRYTI (analog peptide) [Her2/neu.282.F1]", "pIC50": 6.49}
{"binder": "FPSGVKPDLSI (analog peptide) [Her2/neu.600.F1I11]", "pIC50": 6.71}

With those in mind, consider the next binder.
Lookup: Looking for the measured pIC50 of FPHQALLHTI (analog peptide) [Her2/neu.488.F1I10] , can you help?
Found: 7.07
